Provenance of the data: paper PMC3589825

- measuredOn: T1, cyclin T1 (CycT1), purified alone, wild type (human, UniProt O60563 1-264)
- T1 construct: source: purified
- testMethodNotes: fluorescence polarisation; competition titration of unlabeled AFF4 segments against 5 nM fluorescent peptide with 75 nM CycT1, 45 nM P-TEFb or 6 nM Tat-P-TEFb; 25 mM HEPES pH 7.5, 100 mM NaCl, 10% glycerol, 0.1% NP40, 0.5 mM TCEP
- runConditions: both partners purified
recordedEndpoint: Kd (nM)
Numbers only here, please. The scale is nM.

Q. Entry SPLFAEPYKVTSKEDKLSSRIQSMLGNYDEMKDFIG [unlabeled AFF4(32–67) peptide] has what Kd?
A. 102

Q. Find the recorded Kd belonging to AFF4(2–73) (domain or fragment, human, UniProt Q9UHB7 2-73, looked up, source: E. coli Rosetta(DE3)pLysS, purified (His-Trap, TEV digest, His-Trap); not shown: His-tag, N-terminal, cleaved) NREDRNVLRMKERERRNQEIQQGEDAFPPSSPLFAEPYKVTSKEDKLSSRIQSMLGNYDEMKDFIGDRSIPK and report it.
A. 130
